# target-entity: menin-MLL interaction (Homo sapiens)
# Sequence (O00255 whole entry): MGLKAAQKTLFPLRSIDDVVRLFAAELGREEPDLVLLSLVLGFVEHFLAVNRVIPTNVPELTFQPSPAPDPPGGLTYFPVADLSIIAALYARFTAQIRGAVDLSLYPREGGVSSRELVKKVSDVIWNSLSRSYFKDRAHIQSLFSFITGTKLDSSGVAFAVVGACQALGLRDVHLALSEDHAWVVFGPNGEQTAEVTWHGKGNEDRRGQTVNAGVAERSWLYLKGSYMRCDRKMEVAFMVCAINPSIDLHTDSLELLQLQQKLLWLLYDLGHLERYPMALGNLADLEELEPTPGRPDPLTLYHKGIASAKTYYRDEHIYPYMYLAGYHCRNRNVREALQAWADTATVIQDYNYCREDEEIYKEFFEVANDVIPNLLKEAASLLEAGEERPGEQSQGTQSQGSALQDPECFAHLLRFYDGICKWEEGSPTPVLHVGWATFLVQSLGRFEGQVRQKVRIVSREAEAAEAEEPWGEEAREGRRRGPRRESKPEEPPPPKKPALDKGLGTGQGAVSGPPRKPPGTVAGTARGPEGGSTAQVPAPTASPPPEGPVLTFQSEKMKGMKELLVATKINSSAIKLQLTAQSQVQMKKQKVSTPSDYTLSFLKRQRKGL
# method-description: biochemical
pIC50: −log10 of the molar value.
# Lookup of reported pIC50 keyed by entry

Reference set (3 entries):
- O=C(Cc1ccccc1F)N1CCN(c2ncnc3sc(CC(F)(F)F)cc23)CC1 [Compound 72]: 6.30 to 7.00
- N#Cc1ccc2c(CN3CCC(Nc4ncnc5sc(CC(F)(F)F)cc45)CC3)c[nH]c2c1 [Compound 206]: > 7.00
- N#Cc1cc2cc(CN3CCC(Nc4ncnc5sc(CC(F)(F)F)cc45)CC3)ccc2n1Cc1cc(OCCCCC2CC2)n[nH]1 [Compound 415]: 6.30 to 7.00

Note to self: pIC50 recorded for Cc1ccc2[nH]c(C#N)cc2c1CN1CCC(Nc2ncnc3sc(CC(F)(F)F)cc23)CC1 [Compound 218] was > 7.00

Measured pIC50, Cc1c(CN2CCC(Nc3ncnc4sc(CC(F)(F)F)cc34)CC2)ccc2c1cc(C#N)n2CC(O)CO (stereo not shown) [Compound 300] : > 7.00

Looking up N#CCc1ccc2[nH]cc(CN3CCC(Nc4ncnc5sc(CC(F)(F)F)cc45)CC3)c2c1 [Compound 252] , I see its pIC50 listed as 5.70 to 6.30

pIC50 recorded for this molecule, CC(C)c1cc2c(N3CCN(C4=NCC(C)(C)S4)CC3)ncnc2s1 [Compound 30] , is 5.70 to 6.30

Documented pIC50 of CNS(=O)(=O)c1ccc(CC(=O)N2CCN(c3ncnc4sc(CC(F)(F)F)cc34)CC2)cc1 [Compound 82] : 6.30 to 7.00

Per the record, N#Cc1cc2cc(CN3CCC(Nc4ncnc5sc(CC(F)(F)F)cc45)C(N)C3)ccc2[nH]1 (stereo not shown) [Compound 160] has pIC50 of > 7.00

In plain terms, FC(F)(F)Cc1cc2c(NC3CCN(Cc4ccsc4)CC3)ncnc2s1 [Compound 133] has a documented pIC50 of 6.30 to 7.00

// pIC50 value for CO[C@@H](CO)Cn1c(C#N)cc2cc(CN3CCC(Nc4ncnc5sc(CC(F)(F)F)cc45)CC3)ccc21 [Compound 190] : > 7.00

molecule NS(=O)(=O)c1ccc(CN2CCC(Nc3ncnc4sc(CC(F)(F)F)cc34)CC2)c(Cl)c1 [Compound 142] , pIC50 observed: 5.70 to 6.30

The reported value for CCOc1cc2[nH]c(C#N)cc2cc1CN1CCC(Nc2ncnc3sc(CC(F)(F)F)cc23)CC1 [Compound 215] in terms of pIC50 is > 7.00

Summary for this molecule, CC1(C)CN=C(N2CCN(c3ncnc4sc(CCCc5ccccc5)cc34)CC2)S1 [Compound 37] : pIC50 is 5.70 to 6.30

In plain terms, FC(F)(F)Cc1cc2c(NCC3CCN(Cc4ccc(Cl)cc4)CC3)ncnc2s1 [Compound 261] has a documented pIC50 of 6.30 to 7.00

Recorded result, Cc1c(CN2CCC(Nc3ncnc4sc(CC(F)(F)F)cc34)CC2)c(O)cc2c1cc(C#N)n2CCO [Compound 387] , pIC50: > 7.00
